These entries and their values trace back to patent US20040048790A1.

target: HLA-B*5401 (human); assay: 125I-probe peptide inhibition, purified HLA
Property measured: IC50 (nM)
Give the number; nM is assumed, so skip it.

Known IC50 results, listed for orientation:
Binder: FPTPAAPI [p53.79.F118]
Property measured: IC50
Endpoint result: 7.7
//
Binder: FPAPAAPTPA [p53.74.F1 (10-mer)]
Property measured: IC50
Endpoint result: 1.1
//
Binder: FPAPAAPTPAA [p53.74.F1 (11-mer)]
Property measured: IC50
Endpoint result: 2.1

Given item FPAAPTPAA [p53.76.F1 (9-mer)] , the value recorded as its IC50 is 1

Entry FPAAPTPAAPA [p53.76.F1 (11-mer)] , IC50 reported as 1.3

Quick note, IC50 for FPSWPLSSSI [p53.88.F1110] landed at 2.4

Measured IC50 of FPAPSWPI [p53.86.F118] : 1.6

Lab note: measured IC50 of FPAPAPSWPL [p53.84.F1] was 1.7
